target: Fatty-acid amide hydrolase 1 (Rattus norvegicus); assay: Inhibition of rat brain membrane FAAH assessed as [3H]-anandamide hydrolysis at 100 uM after 10 mins by liquid scintillation spectroscopy
propertyName: Imax (%)
Answers are plain numbers, in %.

Consider the reported Imax for these compounds:
O=C(CCCCCc1ccc(-c2ccccc2)cc1)OC[C@H]1CO1	91
O=C(CCc1ccc(Cc2ccccc2)cc1)OCC1CO1 (racemic)	72
O=C(CCCCCc1ccc(-c2ccccc2)cc1)OC[C@@H]1CO1	92
O=C(CCCCCc1ccc(-c2ccccc2)cc1)OCC1CO1 (racemic)	89

For the next question, use this compound.
Requested read-out: Imax. Entry: O=C(CCCCc1ccc(-c2ccccc2)cc1)OCC1CO1 (racemic)
87

---

Target: UniProtKB Q99685
Sequence (Q99685 whole entry): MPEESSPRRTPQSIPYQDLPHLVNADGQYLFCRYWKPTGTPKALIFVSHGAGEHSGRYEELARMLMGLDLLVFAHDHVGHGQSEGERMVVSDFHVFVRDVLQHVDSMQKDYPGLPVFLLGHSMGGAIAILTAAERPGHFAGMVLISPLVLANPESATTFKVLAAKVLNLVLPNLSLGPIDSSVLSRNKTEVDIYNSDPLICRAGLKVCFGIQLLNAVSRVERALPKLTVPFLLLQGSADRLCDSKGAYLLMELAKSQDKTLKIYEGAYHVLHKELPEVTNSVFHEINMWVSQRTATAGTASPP
Assay: Inhibition of human recombinant his-tagged MAGL expressed in Escherichia coli assessed as hydrolysis of 4-nitrophenyl acetate after 20 mins by microplate reader
propertyName: IC50 (µM)
Numbers only, in µM.

Some compounds with recorded IC50:
O=C(/C=C/c1ccc(-c2ccccc2)cc1)OCC1CO1 (racemic)	5.1
O=C(CCCCc1ccc(-c2ccccc2)cc1)OCC1CCCCO1 (racemic)	12
O=C(Cc1ccc(Cc2ccccc2)cc1)OCC1CO1 (racemic)	16
O=C(Cc1ccc(Cc2ccccc2)cc1)OC[C@H]1CO1	2.4
O=C(/C=C/c1ccc(-c2ccccc2)cc1)OCC1CCCCO1 (racemic)	0.76

Which IC50 value is on record for O=C(CCCCc1ccc(-c2ccccc2)cc1)OCC1CO1 (racemic) ?
6.6

---

biological target: Monoglyceride lipase (Rattus norvegicus); assay: Inhibition of rat brain cytosolic MAGL assessed as [3H]-2-arachidonoyl glycerol hydrolysis at 100 uM after 10 mins by liquid scintillation spectroscopy
Sequence (Q8R431 whole entry): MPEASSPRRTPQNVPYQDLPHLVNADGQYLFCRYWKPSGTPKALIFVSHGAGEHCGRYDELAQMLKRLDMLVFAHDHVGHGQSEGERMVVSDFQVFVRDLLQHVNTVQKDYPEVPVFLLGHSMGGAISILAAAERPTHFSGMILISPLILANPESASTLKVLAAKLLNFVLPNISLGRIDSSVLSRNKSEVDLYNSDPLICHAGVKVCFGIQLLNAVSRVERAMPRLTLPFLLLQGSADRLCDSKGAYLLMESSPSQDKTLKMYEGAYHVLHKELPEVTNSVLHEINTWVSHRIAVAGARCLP
propertyName: Imax (%)
Numbers only, in %.

O=C(Cc1ccc(Cc2ccccc2)cc1)OCC1CCCCO1 (racemic)	96
O=C(CCCCCCc1ccc(-c2ccccc2)cc1)OCC1CCCCO1 (racemic)	83

For every item below, please supply its Imax.
1. O=C(/C=C/c1ccc(-c2ccccc2)cc1)OCC1CO1 (racemic)
2. O=C(CCCc1ccc(Cc2ccccc2)cc1)OCC1CCCCO1 (racemic)

[73, 72]

---

target: Monoglyceride lipase (Homo sapiens); test: Inhibition of human recombinant his-tagged MAGL expressed in Escherichia coli assessed as hydrolysis of 4-nitrophenyl acetate after 20 mins by microplate reader
Provide the recorded IC50 for the entries that follow.

Previously resolved entries follow.
O=C(CCc1ccc(-c2ccccc2)cc1)OCC1CCCCO1 (racemic)	1.6 µM
O=C(CCCc1ccc(-c2ccccc2)cc1)OCC1CCCCO1 (racemic)	> 10 µM
O=C(CCCc1ccc(Cc2ccccc2)cc1)OCC1CO1 (racemic)	> 10 µM

Quick batch: IC50 for everything below.
1. O=C(CCCCCc1ccc(-c2ccccc2)cc1)OC(CO)CO
2. O=C(CCCc1ccc(Cc2ccccc2)cc1)OCC1CCCCO1 (racemic)
3. O=C(CCCc1ccc(-c2ccccc2)cc1)OCC1CO1 (racemic)
4. O=C(CCCCCCc1ccc(-c2ccccc2)cc1)OCC1CO1 (racemic)

7.5 µM
> 10 µM
1.8 µM
> 10 µM

Value sought for every listed molecule: IC50.
1. O=C(CCCCCc1ccc(-c2ccccc2)cc1)OC[C@H]1CO1
2. O=C(/C=C/Cc1ccc(-c2ccccc2)cc1)OCC1CCCCO1 (racemic)
3. O=C(CCCCCc1ccc(-c2ccccc2)cc1)OCC1CCCCO1 (racemic)
4. O=C(CCCCCc1ccc(-c2ccccc2)cc1)OCC1CO1 (racemic)

1. > 10 µM
2. > 10 µM
3. > 10 µM
4. 4.1 µM

---

Molecular target: Monoglyceride lipase (Homo sapiens) (UniProt Q99685)
Sequence (whole entry): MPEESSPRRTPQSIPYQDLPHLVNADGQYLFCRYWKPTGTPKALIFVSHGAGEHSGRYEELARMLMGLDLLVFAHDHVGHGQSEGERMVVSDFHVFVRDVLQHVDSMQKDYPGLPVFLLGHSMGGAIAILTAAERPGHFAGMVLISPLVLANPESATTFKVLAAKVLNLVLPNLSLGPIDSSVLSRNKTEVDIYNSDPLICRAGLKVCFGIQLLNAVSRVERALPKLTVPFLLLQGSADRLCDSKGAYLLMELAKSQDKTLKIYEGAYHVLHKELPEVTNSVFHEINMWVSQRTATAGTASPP
Assay: Inhibition of human recombinant his-tagged MAGL expressed in Escherichia coli assessed as hydrolysis of 4-nitrophenyl acetate at 10 uM after 20 mins by microplate reader
Classification field: enter 1 for inhibition values not below 30%, -1 for values below it.

O=C(CCCCCc1ccc(-c2ccccc2)cc1)OCC1CCCCO1 (racemic)	1
O=C(CCCCCc1ccc(-c2ccccc2)cc1)OC[C@H]1CO1	1
O=C(CCCc1ccc(Cc2ccccc2)cc1)OCC1CCCCO1 (racemic)	-1
O=C(Cc1ccc(-c2ccccc2)cc1)OCC1CCCCO1 (racemic)	-1
O=C(/C=C/Cc1ccc(-c2ccccc2)cc1)OCC1CCCCO1 (racemic)	1
O=C(Cc1ccc(Cc2ccccc2)cc1)OC[C@@H]1CO1	-1
O=C(CCCc1ccc(-c2ccccc2)cc1)OCC1CCCCO1 (racemic)	1
O=C(OCC1CCCCO1)c1ccc(CCc2ccccc2)cc1 (racemic)	-1

Is it the case that O=C(C/C=C/c1ccc(-c2ccccc2)cc1)OCC1CCCCO1 (racemic) has inhibition reaching or exceeding 30%?
-1

---

biological target: Monoglyceride lipase (Rattus norvegicus) (UniProt Q8R431)
propertyName: IC50
Respond with a number, then the unit of measure.

Item under review: CCCCC/C=C\C/C=C\C/C=C\C/C=C\CCCC(=O)OCC1CCCCO1 (stereo unspecified) . Reported IC50?
5.6 µM

---

Target: Monoglyceride lipase (Homo sapiens)
Sequence (whole entry): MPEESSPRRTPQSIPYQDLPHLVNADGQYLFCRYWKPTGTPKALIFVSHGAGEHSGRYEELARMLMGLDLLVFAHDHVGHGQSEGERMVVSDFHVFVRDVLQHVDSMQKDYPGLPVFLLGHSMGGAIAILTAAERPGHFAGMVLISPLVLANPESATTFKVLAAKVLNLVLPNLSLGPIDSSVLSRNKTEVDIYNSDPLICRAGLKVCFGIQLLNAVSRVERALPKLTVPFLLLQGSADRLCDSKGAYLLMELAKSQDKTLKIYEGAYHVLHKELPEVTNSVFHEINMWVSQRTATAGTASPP
Assay: Inhibition of human recombinant his-tagged MAGL expressed in Escherichia coli assessed as hydrolysis of 4-nitrophenyl acetate at 10 uM after 20 mins by microplate reader
propertyName: inhibition (%)
Numbers only, in %.

O=C(CCc1ccc(-c2ccccc2)cc1)OCC1CO1 (racemic)	22

Hello, I would appreciate it if you could give inhibition for each entry below.
1. O=C(CCCCCc1ccc(-c2ccccc2)cc1)OC[C@@H]1CO1
2. O=C(CCCCCCc1ccc(-c2ccccc2)cc1)OCC1CO1 (racemic)
3. O=C(CCCCCCc1ccc(-c2ccccc2)cc1)OCC1CCCCO1 (racemic)
4. O=C(CCCc1ccc(Cc2ccccc2)cc1)OCC1CO1 (racemic)

1. 45
2. 11
3. 37
4. 29
